SYSTEM_UNDER_TEST: human HSV DNA polymerase UL30 (Human herpesvirus 1 (strain 17) (HHV-1) (Human herpes simplex virus 1), UniProt P04293)
METHOD_NOTES: biochemical
APPLIED_CONDITIONS: 625 pM HSV polymerase, 20 minutes at room temperature; read-out: HSV-polymerase Biochemical IC50
REPORTED_PROPERTY: IC50 (nM)
Numbers only, in nM.

Study these solved cases before continuing.
{"MOLECULE": "Cn1nc(C(=O)NCc2ccc(Cl)cc2)c2c1C(=O)N(CC1(S(=O)(=O)C(C)(C)CO)CC1)CC2 [Example 50]", "OUTPUT_UNIT": "nM", "REPORTED_RESULT": 16}
{"MOLECULE": "Cn1nc(C(=O)NCc2ccc(C#N)cc2)c2c1C(=O)N(CC1(S(=O)(=O)CC(C)(C)O)CC1)CC2 [Example 118]", "OUTPUT_UNIT": "nM", "REPORTED_RESULT": 412}

# batch: return IC50 for each of the 2 molecules below
1. Cn1nc(C(=O)NCc2ccc(C#N)cc2)c2c1C(=O)N(CC1(S(=O)(=O)C(C)(C)C#N)CC1)CC2 [Example 59]
2. Cn1nc(C(=O)NCc2ccc(C#N)cc2)c2c1C(=O)N(CC1(S(=O)(=O)C(C)(C)COC(F)(F)CO)CC1)CC2 [Example 84]

[23, 45]

Reference for the values: patent US20250353820A1
